# assayed target: 5-HT3 (Rattus norvegicus)
# Sequence (P35563 24-483): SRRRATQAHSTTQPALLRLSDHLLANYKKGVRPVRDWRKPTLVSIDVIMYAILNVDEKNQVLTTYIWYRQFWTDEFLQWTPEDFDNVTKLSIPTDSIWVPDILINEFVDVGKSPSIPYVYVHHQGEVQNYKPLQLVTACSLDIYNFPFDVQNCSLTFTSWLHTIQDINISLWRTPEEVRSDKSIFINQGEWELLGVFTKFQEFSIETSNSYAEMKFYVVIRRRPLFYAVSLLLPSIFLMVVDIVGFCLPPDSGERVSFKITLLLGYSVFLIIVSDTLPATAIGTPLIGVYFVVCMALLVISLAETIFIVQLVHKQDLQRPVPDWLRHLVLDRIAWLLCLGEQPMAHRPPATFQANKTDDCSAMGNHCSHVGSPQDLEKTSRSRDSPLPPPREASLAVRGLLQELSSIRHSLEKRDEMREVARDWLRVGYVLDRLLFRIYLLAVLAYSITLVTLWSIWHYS
# assay name: biochemical
# Assay type: binding, Male Sprague-Dawley rats
# test settings: 0.2 nM [3H]GR65630, rat entorhinal cortex, 40 minutes, room temperature; read-out: 5-HT3 IC50
pIC50: −log10 of the molar value. Where a name gives a salt, the structure may show the parent alone.
reported metric: pIC50

Answered cases to consult:
[
  {
    "compound": "COC(=O)c1ccccc1NC(=O)[C@H]1Cc2[nH]cnc2CN1C",
    "pIC50": 7.92
  },
  {
    "compound": "CN1Cc2nc[nH]c2C[C@H]1C(=O)Nc1cc(O)ccc1O [Compd 40, dihydrobromide]",
    "pIC50": 7.34
  },
  {
    "compound": "COc1ccccc1NC(=O)[C@@H]1Cc2[nH]cnc2CN1C",
    "pIC50": 8.31
  },
  {
    "compound": "CN1Cc2nc[nH]c2C[C@@H]1C(=O)Nc1nc2ccccc2s1",
    "pIC50": 7.15
  },
  {
    "compound": "CC1(C)N[C@H](C(=O)Nc2ccccc2Oc2ccccc2)Cc2[nH]cnc21",
    "pIC50": 8.07
  }
]

P: CN1Cc2nc[nH]c2C[C@H]1C(=O)Nc1cccc(F)c1F
Q: CN1Cc2nc[nH]c2C[C@@H]1C(=O)Nc1ccccc1Oc1ccccc1
R: CN1Cc2nc[nH]c2C[C@@H]1C(=O)Nc1cccc2nsnc12
S: CN1Cc2nc[nH]c2C[C@H]1C(=O)Nc1ccccc1O
Arrange by pIC50, high to low. Lab note: final answer is the ordered label list. R, Q, S, P
(R: 8.70, Q: 8.09, S: 7.21, P: 6.19)
